- MEASUREMENT TARGET: Cathepsin D (Cat D) (Homo sapiens (Human), UniProt P07339)
- Sequence (P07339 65-412, species assumed): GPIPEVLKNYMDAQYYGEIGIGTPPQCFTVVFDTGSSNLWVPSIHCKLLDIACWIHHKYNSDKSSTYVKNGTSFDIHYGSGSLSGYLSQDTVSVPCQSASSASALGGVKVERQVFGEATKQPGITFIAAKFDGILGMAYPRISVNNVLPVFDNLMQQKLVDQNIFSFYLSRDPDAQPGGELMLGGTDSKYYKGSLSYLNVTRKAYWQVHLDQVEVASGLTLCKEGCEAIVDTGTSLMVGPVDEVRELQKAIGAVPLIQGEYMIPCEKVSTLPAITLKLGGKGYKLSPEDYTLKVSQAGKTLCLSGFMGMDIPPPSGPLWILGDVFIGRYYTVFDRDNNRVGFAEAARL
- ASSAY INFO: In vitro enzymatic Cathepsin D (Cat D) FRET assay
- Assay type: biochemical
- STUDY CONDITIONS: read-out: CatD IC50
Where a name gives a salt, the structure may show the parent alone.
Below is a list of entries, each paired with its recorded IC50 value.

{"COMPOUND": "C#CCOc1cnc(C(=O)Nc2cc(F)c(F)c(C3(CF)N=C(N)O[C@H]4C[C@H]43)c2)cn1 (stereo in doubt)", "IC50 [µM]": 623}
{"COMPOUND": "COc1cnc(C(=O)Nc2cc(C)c(F)c([C@@]3(C(F)F)N=C(N)O[C@@H]4C[C@@H]43)c2)cn1", "IC50 [µM]": 465}
{"COMPOUND": "NC1=N[C@@](c2cc(NC(=O)c3coc(C(F)F)n3)ccc2F)(C(F)F)[C@H]2C[C@H]2O1 [Example 150, trifluoroacetate]", "IC50 [µM]": 238}

These measurements were taken from patent US9085576B2.
